# Test system: VEGF-121 (Homo sapiens), P15692-9
# Sequence: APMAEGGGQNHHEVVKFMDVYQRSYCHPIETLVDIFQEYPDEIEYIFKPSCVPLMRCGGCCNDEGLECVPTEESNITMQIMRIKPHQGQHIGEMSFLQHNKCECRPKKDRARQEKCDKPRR
# experiment-summary: filter
# measurement-parameters: P=Nap-dU; 2'-OMe G20
readout-kind: pKd
Remember the convention: pKd equals -log10 of concentration in molar.

Kindly indicate its recorded pKd. Item: AGCCGTTCAAGTGCTTGTAGGATTTAAATGGA [4867-31_84] 9.68

---

# target-system: PDGF-BB (platelet-derived growth factor BB) (Homo sapiens) (UniProt P01127)
# Sequence (P01127 82-190): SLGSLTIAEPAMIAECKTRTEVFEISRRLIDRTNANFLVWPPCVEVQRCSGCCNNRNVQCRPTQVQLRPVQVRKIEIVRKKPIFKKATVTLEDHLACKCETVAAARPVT
# experiment-summary: filter
# measurement-parameters: Bn-dU, Nap-dU, Heg, 2'-OMe
pKd: −log10 of the molar value.
readout-kind: pKd

Kindly indicate its recorded pKd. Item: TTACGTTACACGCGTTTATAGCG [4149-8_129] < 8.00

---

# Tested on: VEGF-165 (Homo sapiens), P15692-4
# Sequence: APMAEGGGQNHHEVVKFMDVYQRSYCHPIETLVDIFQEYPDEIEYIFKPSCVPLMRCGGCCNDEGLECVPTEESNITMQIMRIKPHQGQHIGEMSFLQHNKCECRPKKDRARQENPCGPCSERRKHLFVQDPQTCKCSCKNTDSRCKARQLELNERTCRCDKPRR
# experiment-summary: filter
# measurement-parameters: Nap-dU, Bn-dU, MBn-dU, 2'-OMe, C3; 2 Heg between parts
readout-kind: pKd
Remember the convention: pKd equals -log10 of concentration in molar.

Kindly indicate its recorded pKd. Item: CCGTTCAAGTGCTTGTAGGATTTAAATGGTTACGTTACCGCGTTTATAGCG [4149-8_409] 10.54

---

# Test system: VEGF-121 (Homo sapiens), P15692-9
# Sequence: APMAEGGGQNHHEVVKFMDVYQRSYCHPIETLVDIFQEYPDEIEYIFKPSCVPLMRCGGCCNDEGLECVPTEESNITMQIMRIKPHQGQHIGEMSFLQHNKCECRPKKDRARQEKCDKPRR
# experiment-summary: filter
# measurement-parameters: PDGF-2Heg-VEGF; NapdU, 2'-OMe
readout-kind: Kd (nM)
Field format: number, assumed nM, no unit text.

Kindly indicate its recorded Kd. Item: CGACAGCATGTATGCACATCTCCGTTCAAGTGCTTGTAGGATTTAAATGG [5169-4_103] 0.12

---

# target-system: PDGF-BB (platelet-derived growth factor BB) (Homo sapiens)
# experiment-summary: filter
# measurement-parameters: NapdU at P; 2'-OMe 1,2,3
readout-kind: Kd (nM)
Field format: number, assumed nM, no unit text.

Kindly indicate its recorded Kd. Item: CGACAGCATGTATGCACATCT [5169-4_132] 0.42

---

# Tested on: VEGF-121 (Homo sapiens), P15692-9
# Sequence: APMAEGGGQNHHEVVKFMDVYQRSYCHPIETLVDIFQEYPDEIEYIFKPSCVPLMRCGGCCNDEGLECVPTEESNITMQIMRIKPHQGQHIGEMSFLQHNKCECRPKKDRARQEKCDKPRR
# experiment-summary: filter
# measurement-parameters: as 4867-31_192; PS 3' of 29; 3' inverted dT
readout-kind: Kd (nM)
Field format: number, assumed nM, no unit text.

Tell me its Kd on VEGF-121 (Homo sapiens), P15692-9: CCGTTCAAGTGCTTGTAGGATTTAAATGG [4867-31_445] 0.01
